- tested target: α4β1 integrin (Jurkat T-cell adhesion to IL-1 stimulated endothelial cell monolayers) (Homo sapiens, UniProt P05556+P13612)
- Construct: a T-cell line, Jurkat, known to express the α4β1 integrin
- Sequence (P13612 34-1032): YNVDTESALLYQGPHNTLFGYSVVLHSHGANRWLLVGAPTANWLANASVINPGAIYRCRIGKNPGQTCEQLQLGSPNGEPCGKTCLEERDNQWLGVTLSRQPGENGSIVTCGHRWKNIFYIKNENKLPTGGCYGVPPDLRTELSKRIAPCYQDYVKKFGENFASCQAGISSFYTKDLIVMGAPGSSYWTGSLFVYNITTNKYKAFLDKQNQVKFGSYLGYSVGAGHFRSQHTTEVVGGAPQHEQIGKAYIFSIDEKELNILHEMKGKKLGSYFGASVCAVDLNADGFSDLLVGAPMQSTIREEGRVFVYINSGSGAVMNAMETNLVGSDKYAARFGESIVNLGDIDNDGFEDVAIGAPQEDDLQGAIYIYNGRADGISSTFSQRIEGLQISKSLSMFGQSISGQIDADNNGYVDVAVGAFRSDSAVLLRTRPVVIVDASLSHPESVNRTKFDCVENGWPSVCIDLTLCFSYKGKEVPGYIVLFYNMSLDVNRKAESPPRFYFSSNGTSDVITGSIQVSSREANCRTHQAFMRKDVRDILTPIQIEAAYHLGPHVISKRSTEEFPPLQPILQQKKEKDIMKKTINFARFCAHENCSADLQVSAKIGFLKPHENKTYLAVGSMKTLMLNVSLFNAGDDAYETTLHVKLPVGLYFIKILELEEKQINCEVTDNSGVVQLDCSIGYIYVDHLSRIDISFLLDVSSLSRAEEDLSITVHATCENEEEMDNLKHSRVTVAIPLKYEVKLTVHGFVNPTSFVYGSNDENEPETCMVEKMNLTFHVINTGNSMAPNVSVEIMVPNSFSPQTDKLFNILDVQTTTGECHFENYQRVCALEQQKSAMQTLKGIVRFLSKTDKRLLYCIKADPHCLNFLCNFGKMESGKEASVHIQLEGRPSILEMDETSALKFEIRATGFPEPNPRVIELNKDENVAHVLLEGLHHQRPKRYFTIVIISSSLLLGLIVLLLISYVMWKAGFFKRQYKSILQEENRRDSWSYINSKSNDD
- Sequence (P05556 21-798): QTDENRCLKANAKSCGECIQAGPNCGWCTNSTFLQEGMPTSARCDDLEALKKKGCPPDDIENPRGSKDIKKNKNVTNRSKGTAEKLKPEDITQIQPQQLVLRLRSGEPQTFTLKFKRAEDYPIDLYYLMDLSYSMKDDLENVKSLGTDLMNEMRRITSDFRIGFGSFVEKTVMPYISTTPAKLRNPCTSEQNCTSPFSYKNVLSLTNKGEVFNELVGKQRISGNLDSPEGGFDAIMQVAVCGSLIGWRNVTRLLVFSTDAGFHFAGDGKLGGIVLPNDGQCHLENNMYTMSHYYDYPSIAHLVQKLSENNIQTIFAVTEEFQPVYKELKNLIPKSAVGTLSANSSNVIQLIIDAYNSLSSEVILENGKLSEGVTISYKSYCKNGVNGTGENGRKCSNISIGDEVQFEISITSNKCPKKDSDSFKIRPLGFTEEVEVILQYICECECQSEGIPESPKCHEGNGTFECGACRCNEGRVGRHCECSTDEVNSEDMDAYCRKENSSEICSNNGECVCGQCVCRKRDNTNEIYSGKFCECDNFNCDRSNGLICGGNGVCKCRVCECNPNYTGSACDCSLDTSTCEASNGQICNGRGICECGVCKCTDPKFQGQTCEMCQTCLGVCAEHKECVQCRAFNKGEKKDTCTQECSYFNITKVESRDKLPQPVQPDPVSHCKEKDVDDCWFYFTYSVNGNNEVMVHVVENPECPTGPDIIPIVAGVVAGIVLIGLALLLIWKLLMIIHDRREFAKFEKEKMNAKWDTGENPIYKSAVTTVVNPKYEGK
- experiment notes: Jurkat-endothelial cell adhesion assay (Jurkat EC)
- condition context: Jurkat cells on IL-1 stimulated human umbilical vein endothelial cells; read-out: JK/EC (Jurkat EC Assay IC50 value range)
pIC50: −log10 of the molar value.
parameter: pIC50

Measured pIC50, O=C(O)CCC1(CCC(=O)N[C@@H](Cc2ccc(NC(=O)c3c(Cl)cccc3Cl)cc2)C(=O)O)CCC(=O)N1 (stereo partly shown) : ≤ 6.00

Measured pIC50, "CC(C)(C)OC(=O)N1CC(C(=O)N[C@@H](Cc2ccc(NC(=O)c3c(Cl)cccc3Cl)cc2)C(=O)O)C1" : ≤ 6.00

Measured pIC50, O=C(O)CCC(=O)N1CSC[C@H]1C(=O)N[C@@H](Cc1ccc(NC(=O)c2c(Cl)cccc2Cl)cc1)C(=O)O (relative stereo) : ≤ 6.00

Measured pIC50, CC(C)(C)OC(=O)N1CSC(C)(C)[C@@H]1C(=O)N[C@@H](Cc1ccc(NC(=O)c2c(Cl)cccc2Cl)cc1)C(=O)O (relative stereo) : 6.00 to 6.60

Measured pIC50, "O=C(O)c1ccc(NC(=O)N2CCC[C@H]2C(=O)N[C@@H](Cc2ccc(NC(=O)c3c(Cl)cccc3Cl)cc2)C(=O)O)cc1" : ≤ 6.00

Measured pIC50, O=C(O)CCC(=O)N1CCSCC1C(=O)N[C@@H](Cc1ccc(OCc2c(Cl)cccc2Cl)cc1)C(=O)O (stereo in doubt) : ≤ 6.00

Measured pIC50, COC(=O)[C@H](Cc1ccc(NC(=O)c2c(Cl)cccc2Cl)cc1)NC(=O)[C@H]1CSCN1C(=O)OCC1c2ccccc2-c2ccccc21 (relative stereo) : ≤ 6.00

Measured pIC50, COC(=O)[C@H](Cc1ccc(NC(=O)c2c(Cl)cccc2Cl)cc1)NC(=O)[C@H]1CSCN1C(=O)OCc1ccccc1 (relative stereo) : ≤ 6.00

Measured pIC50, COC(=O)[C@H](Cc1ccc(NC(=O)c2c(Cl)cccc2Cl)cc1)NC(=O)[C@H]1CSCN1C(=O)CCCC(=O)O (relative stereo) : 6.00 to 6.60

Measured pIC50, "O=C(O)/C=C/C(=O)N1CCC(C(=O)N[C@@H](Cc2ccc(NC(=O)c3c(Cl)cccc3Cl)cc2)C(=O)O)CC1" : ≤ 6.00

Measured pIC50, COC(=O)[C@H](Cc1ccc(NC(=O)c2c(Cl)cccc2Cl)cc1)NC(=O)[C@H]1CSCN1C(=O)OCc1ccccn1 (relative stereo) : ≥ 6.60

Measured pIC50, "O=C(O)c1ccc(NC(=O)N2CCC(C(=O)N[C@@H](Cc3ccc(NC(=O)c4c(Cl)cccc4Cl)cc3)C(=O)O)CC2)cc1" : ≤ 6.00

Measured pIC50, O=C(Nc1ccc(C[C@H](NC(=O)C2CCCN(C(=O)C3CCCC(C(=O)O)C3)C2)C(=O)O)cc1)c1c(Cl)cccc1Cl (stereo partly shown) : ≤ 6.00

Measured pIC50, "CCOC(=O)N1CSC[C@@H]1C(=O)N[C@@H](Cc1ccc(NC(=O)c2c(Cl)cccc2Cl)cc1)C(=O)OCc1ccncc1" : 6.00 to 6.60

Measured pIC50, COC(=O)[C@H](Cc1ccc(NC(=O)c2c(Cl)cccc2Cl)cc1)NC(=O)[C@@H]1N(C(=O)OC(C)(C)C)CSC1(C)C (relative stereo) : ≤ 6.00

Measured pIC50, "O=C(C[C@@H]1CC[C@H](C(=O)O)N1Cc1ccccc1)N[C@@H](Cc1ccc(OCc2c(Cl)cccc2Cl)cc1)C(=O)O" : ≤ 6.00

Measured pIC50, "COC(=O)[C@H](Cc1ccc(NC(=O)c2c(Cl)cccc2Cl)cc1)NC(=O)[C@H]1CSCN1S(=O)(=O)c1ccccc1" : ≤ 6.00

Measured pIC50, O=C(O)[C@H](Cc1ccc(OCc2c(Cl)cccc2Cl)cc1)NC(=O)[C@H]1CSCN1C(=O)OCCN1CCOCC1 (relative stereo) : ≥ 6.60

Measured pIC50, "COCCC(=O)N1CCCC[C@H]1C(=O)N[C@@H](Cc1ccc(NC(=O)c2c(Cl)cccc2Cl)cc1)C(=O)O" : ≤ 6.00

Measured pIC50, "O=C(Nc1ccc(C[C@H](NC(=O)[C@@H]2CCCCN2C(=O)c2cccnc2)C(=O)O)cc1)c1c(Cl)cccc1Cl" : ≥ 6.60

Measured pIC50, "CCOC(=O)N1CSC[C@@H]1C(=O)N[C@@H](Cc1ccc(OCc2c(Cl)cccc2Cl)cc1)C(=O)NO" : ≤ 6.00

Measured pIC50, "O=C(Nc1ccc(C[C@H](NC(=O)[C@H]2COCN2C(=O)OCc2ccccc2)C(=O)O)cc1)c1c(Cl)cccc1Cl" : ≥ 6.60

Measured pIC50, COc1ccc(C(=O)N2CCCC(C(=O)N[C@@H](Cc3ccc(NC(=O)c4c(Cl)cccc4Cl)cc3)C(=O)O)C2)cc1OC (stereo partly shown) : ≤ 6.00

Measured pIC50, "O=C(O)c1cncc(C(=O)N2CCC[C@H]2C(=O)N[C@@H](Cc2ccc(NC(=O)c3c(Cl)cccc3Cl)cc2)C(=O)O)c1" : ≤ 6.00

Measured pIC50, O=C(Nc1ccc(C[C@H](NC(=O)[C@@H]2CCCCN2C(=O)C2NC(C(=O)O)CS2)C(=O)O)cc1)c1c(Cl)cccc1Cl (stereo partly shown) : 6.00 to 6.60
